Where do these numbers come from? They come from PubChem BioAssay AID504329.

- Test Protocol: H1N1 influenza NS1A inhibitors, functional cell based assay (AID 504329)
- Condition Notes: percent inhibition, at 12.5 µM, hits give high values
Among all 340,000 compounds or so, about 1,000 (0.29%) were called active. Only a sample is shown. Results with a measured potency or affinity are listed apart.
inhibition values for the compounds below.

In the examples that follow, each entry is paired with its recorded inhibition.
Compound	Observed Property	Result
Clc1ccccc1-c1ccc2ncnc(NCc3cccs3)c2c1	inhibition	9.25% (inactive)
CCC(NC(=O)COc1cc2c(c3oc(=O)c(C)c(C)c13)CCC(C)(C)O2)C(=O)O (stereo not given)	inhibition	-8.88% (inactive)
CN(C)c1ccc(/C=C/c2cc[n+](C)cc2)cc1	inhibition	7.63% (inactive)
COc1ccc(/C=C2/C(=O)N(Cc3ccccc3)N=C2C)cc1	inhibition	-0.08% (inactive)
CCOC(=O)C1=C(C)N=c2s/c(=C/c3cccc([N+](=O)[O-])c3O)c(=O)n2C1c1cc(OC)c(OC)c(OC)c1 (stereo not given)	inhibition	20.1% (inactive)
O=C(O)CP(=O)(O)O	inhibition	-2.09% (inactive)
COC(=O)c1ccc(NC(=S)NC2CC(C)(C)NC(C)(C)C2)cc1	inhibition	-11.7% (inactive)
N#CC(C#N)=C1NC(N)=C(C#N)C(c2ccccc2)=C1C#N	inhibition	-3.59% (inactive)

Any idea what inhibition was measured for COc1cccc2cc(CC(=O)c3ccccc3)c(=O)oc12 ?
-8.03% (inactive)

And the next one, COC(=O)c1ccccc1S(=O)(=O)N(CCCN1CCOCC1)Cc1cccs1 ?
18.3% (inactive)

----------
- Test Protocol: H1N1 influenza NS1A inhibitors, functional cell based assay (AID 504329)
- Condition Notes: percent inhibition, at 12.5 µM, hits give high values
Hit rate of the full screen: of about 340,000 compounds, about 1,000 (0.29%) were called active. These entries were drawn from the full list. Results with a measured potency or affinity are listed apart.
Below: a set of entries, each annotated with reported inhibition.
Numbers only here, please. The scale is %.

Compound	Unit Annotation	inhibition
O=C(NCCc1ccccc1)C(=O)NCC1CCCN1S(=O)(=O)c1ccccc1 (stereo not given)	%	-2.99

Now take the following compound into account.
Which inhibition value is on record for C=CCn1c(CC(=O)Nc2ccc(C)cc2C)nnc1SCC(=O)N1CCOCC1 ?
-7.34

----------
- Test Protocol: H1N1 influenza NS1A inhibitors, functional cell based assay (AID 504329)
- Condition Notes: percent inhibition, at 12.5 µM, hits give high values
The whole screen tested about 340,000 compounds, of which about 1,000 (0.29%) were called active. These entries were drawn from the full list. Measured potencies and affinities stand elsewhere.
Observed Property: inhibition (%)
Reply with just the number (in %).

Compound	inhibition / %
CCC(=O)NC(c1ccc(C)cc1)c1cc([N+](=O)[O-])c2cccnc2c1O (centres undefined)	27.3

Which inhibition reading was recorded for the compound CC(C)C(=O)NC(c1ccccc1)c1cc([N+](=O)[O-])c2cccnc2c1O (centres undefined) ?
3.43

Follow-up item: COc1ccc(C(CCN2CCN(c3ccccc3)CC2)c2c(O)cc(OC)cc2OC)cc1 (centres undefined)
15.3

One more compound: COc1cc(/C=C2\SC(=S)N(Nc3ccccc3)C2=O)ccc1O
16.4

Entry CCCC(=O)NC(c1ccco1)c1cc([N+](=O)[O-])c2cccnc2c1O (centres undefined) please
4.57

Further, for CCN(CC)c1ccc(/C=C2\CCC(/C=C(\C#N)C(=O)Nc3ccccc3F)=C2N2CCOCC2)cc1 ?
-0.77

And for O=C(N/N=C/C1CC2CCC1C2)c1ccc2c(c1)OCO2 (centres undefined) ?
4.78

Next record, please: CCOc1cc(/C=C2\SC(=S)N(Nc3ccccc3)C2=O)ccc1O
-19.7

Now the same for c1ccc(CN(Cc2cccs2)C(c2cccs2)c2nnnn2C2CCCC2)cc1 (centres undefined)
4.12

Ok, now CC(=O)NC(c1ccc(C)cc1)c1cc([N+](=O)[O-])c2cccnc2c1O (centres undefined)
22

Please do the same for O=c1[nH]c2cc(Cl)c(Cl)cc2o1 as well.
-8.2

Check COc1cc(Cl)c(C)cc1N1C(=O)CN(Cc2ccccc2)C1=S too.
-3.41

Now try Fc1ccc(/C=N/n2cnn(Cc3ccccc3Cl)c2=S)cc1 .
-7.06

How about CCN(Cc1ccccc1)c1ccc(/C=N/NS(=O)(=O)c2ccc(C)c([N+](=O)[O-])c2)cc1 ?
-1.19

----------
- Test Protocol: H1N1 influenza NS1A inhibitors, functional cell based assay (AID 504329)
- Condition Notes: percent inhibition, at 12.5 µM, hits give high values
In all, about 340,000 compounds went through this assay and about 1,000 (0.29%) were called active. A selection follows. Entries with a potency or affinity are not part of this list.
Observed Property: inhibition (%)
Quick note: give the figure in %, leave out the unit.

Answered examples (3):
Molecule	inhibition / %
C=CCNc1cc(C(F)(F)F)nc(-c2ccccn2)n1	-12.7
Cc1ccc(C(=O)N/N=C\c2ccccc2[N+](=O)[O-])cn1	4.04
c1ccc(-c2nc(NC3CCCC3)c3ccccc3n2)cc1	-1.14

Okay, next one:
Please look up its inhibition: Cc1ccc2cc(CCNC(=O)C3CCCC3)c(=O)[nH]c2c1
9.32

----------
- Test Protocol: H1N1 influenza NS1A inhibitors, functional cell based assay (AID 504329)
- Condition Notes: percent inhibition, at 12.5 µM, hits give high values
The whole screen tested about 340,000 compounds, of which about 1,000 (0.29%) were called active. Only a sample is shown. Potency and affinity values are given separately.
In this section, each of the compounds is paired with its reported inhibition.
The reply should be a number in %, with the unit left off.

Some solved entries appear below for comparison.
Compound Structure String	inhibition, %
N/C(=N\[N+](=O)[O-])N1CCN(C(=O)OC2CCCC2)CC1	0.06
COc1cc(CN2CC=C(c3ccc(F)cc3)CC2)cc(OC)c1	-3.66
O=C(O)c1cc2ccccc2n1-c1ccccc1	16.9
O=C(CSc1ccccc1)NNC(=O)c1ccncc1	-1.89
N/C(CSc1ccccn1)=N\OCc1c(Cl)cccc1Cl	-0.92
COc1ccc(-c2cc(C(=O)NCCN3CCOCC3)c3ccccc3n2)cc1OC	23

Please examine the following record next.
Would you kindly share the measured inhibition for CCOC(=O)C1CCN(Cc2c(O)ccc3ccccc23)CC1 ?
-4.79

----------
- Test Protocol: H1N1 influenza NS1A inhibitors, functional cell based assay (AID 504329)
- Condition Notes: percent inhibition, at 12.5 µM, hits give high values
The campaign covered roughly 340,000 compounds. About 1,000 (0.29%) were called active. Not all results are given here. Measured potencies and affinities stand elsewhere.
A collection of molecules and their measured inhibition
Please respond with the number in % and leave the unit unwritten.

Example entries begin here.
Compound Structure String	Observed Property	Numeric Value
COc1cc([N+](=O)[O-])c(N2CCOCC2)c([N+](=O)[O-])c1OC	inhibition	3.06
Oc1ccc(Br)cc1/C=N/Nc1ncc(-c2ccccc2)cn1	inhibition	-1.12
COc1cc([N+](=O)[O-])cc(/C=N/NC(=O)c2ccc(NC(=O)c3ccc(C)cc3)cc2)c1O	inhibition	-0.59

What value of measured inhibition is listed for CC1(C)Oc2ccc3ccc(=O)oc3c2C(/C=N/O)=C1Cl ?
-10.3

Moving on to the next molecule: O=C(NNC(=O)c1cnccn1)c1ccc(Cl)cc1
-1.07

Next molecule: O=C(/C=C/c1ccccc1)NC(=S)NNC(=O)c1cccnc1
11.7

----------
- Test Protocol: H1N1 influenza NS1A inhibitors, functional cell based assay (AID 504329)
- Condition Notes: percent inhibition, at 12.5 µM, hits give high values
Out of some 340,000 compounds screened, about 1,000 (0.29%) were called active. A selection follows. Entries with a potency or affinity are not part of this list.
Some compounds, each annotated with its measured inhibition.
Numeric answer only, unit % assumed.

Compound Structure String	Observed Property	Unit Annotation	Numeric Value
C=CCN1C(=O)/C(=C\c2ccc(C)cc2)N=C1SCC(=O)NCCC	inhibition	%	-5.98
COc1cccc(CNC(=O)CSc2ccc(-c3cccs3)nn2)c1	inhibition	%	5.92
Cc1nnc2sc(SCc3cccc(Cl)c3)nn2c1=O	inhibition	%	2.99
Cc1c(NN=C(C#N)C#N)c(=O)n(-c2ccccc2)n1C	inhibition	%	-11.5
Cc1c(NC(C)C)c(=O)n(-c2ccccc2)n1C	inhibition	%	-3.1
Cc1ccc(OCc2nnc(SCC(=O)Nc3ncc(C)s3)o2)cc1	inhibition	%	-2.25
CCCOc1ccc(C(C)=O)cc1CSc1nc(O)cc(=O)[nH]1	inhibition	%	4.86
Cc1cccc(/C=N/Nc2nncc3ccccc23)c1	inhibition	%	3.05

Attention now shifts to the item below.
Sample O=C(CSc1ccc(-c2ccccn2)nn1)NCc1ccccc1 — what was its inhibition?
1.11

----------
- Test Protocol: H1N1 influenza NS1A inhibitors, functional cell based assay (AID 504329)
- Condition Notes: percent inhibition, at 12.5 µM, hits give high values
The whole screen tested about 340,000 compounds, of which about 1,000 (0.29%) were called active. Only a sample is shown. Measured potencies and affinities stand elsewhere.
Observed Property: inhibition (%)
API: value field is a number in %; no unit string.

Molecule	Observed Property	Numeric Value
CCCOc1cccc(-c2nn(-c3ccccc3)cc2/C=C(\C#N)C(=O)NCCCn2ccnc2)c1	inhibition	1.02
O=C(NCCCn1ccnc1)c1cn(-c2ccccc2)nc1-c1ccc(F)cc1	inhibition	6.07
CCOc1ccc(CC(=O)Nc2nccs2)cc1OCC	inhibition	-1.94
COc1ccc(OC)c(C(=O)CN2CCN(S(=O)(=O)c3ccc(Br)cc3)CC2)c1	inhibition	0.97
O=CC1=C(N2CCOCC2)/C(=C\c2ccccc2)CC1	inhibition	-9.74

Recorded inhibition of O=C(O)CCNc1ccc(NCCC(=O)O)c2c1C(=O)c1ccccc1C2=O , please.
22.7

Please do the same for O=C(NCCN1CCCCC1)Nc1ccc(Br)cc1 as well.
-24.7
